Exercise: for every item that follows, state its recorded LEUKOCYTE COUNT.
# Species on record: Rattus norvegicus
# assay.name: DrugMatrix - Regimen: Daily Repeat
# Type: toxicity, organism-based, Sprague-Dawley
# Parameters: regimen Daily Repeat, gender Male, age 6-8 weeks
# reported.conditions: in vivo, po, 0 mg/kg, 72 h, tissue Blood, route oral GAVAGE, dose level Control, time 3 day, […]
Answer format: value, then unit.

Asked: What LEUKOCYTE COUNT value was documented for this compound, Oc1ncnc2[nH]ncc12 [ALLOPURINOL] ?
Given back: 16.6 x10E3/uL

Asked: What about CC#C[C@]1(O)CC[C@H]2[C@@H]3CCC4=CC(=O)CCC4=C3[C@@H](c3ccc(N(C)C)cc3)C[C@@]21C [MIFEPRISTONE] ?
Given back: 11.72 x10E3/uL

Asked: What about CCC(C)(C)C(=O)O[C@H]1C[C@@H](C)C=C2C=C[C@H](C)[C@H](CC[C@@H]3C[C@@H](O)CC(=O)O3)[C@H]21 [SIMVASTATIN] ?
Given back: 11.72 x10E3/uL

Asked: What about c1ccc2c(c1)Nc1ccccc1S2 [PHENOTHIAZINE] ?
Given back: 6.95 x10E3/uL

Asked: What about CCOC(=O)C1=C(C)NC(C)=C(C(=O)OCC)C1c1ccccc1/C=C/C(=O)OC(C)(C)C [LACIDIPINE] ?
Given back: 10.65 x10E3/uL

Asked: What about CS(=O)(=O)c1ccc(C2=C(c3ccccc3)C(=O)OC2)cc1 [ROFECOXIB] ?
Given back: 6.95 x10E3/uL

Asked: What about O=C(Nc1ccc(Cl)c(Cl)c1)c1cc(Cl)cc(Cl)c1O [3,3',4',5-TETRACHLOROSALICYLANILIDE] ?
Given back: 12.45 x10E3/uL

Asked: What about O=C(O)COC(=O)Cc1ccccc1Nc1c(Cl)cccc1Cl [ACECLOFENAC] ?
Given back: 10.22 x10E3/uL

Asked: What about CC(C)(c1ccc(O)cc1)c1ccc(O)cc1 [BISPHENOL A] ?
Given back: 10.68 x10E3/uL

Asked: What about COC(=O)Nc1nc2ccc(C(=O)c3ccccc3)cc2[nH]1 [MEBENDAZOLE] ?
Given back: 10.22 x10E3/uL

Asked: What about `CO[C@H]1O[C@@H]2O[C@@]3(C)CC[C@H]4[C@H](C)CC[C@@H]([C@H]1C)[C@@]24OO3` ?
Given back: 16.12 x10E3/uL

Asked: What about Cc1cccc(C)c1NC(=O)C(C)N (configuration not stated) [TOCAINIDE] ?
Given back: 9.73 x10E3/uL
